# study_system: T1, biotinylated 6His tag-AviTag-linked mature human IL-33 (residues 112 to 270) (human, UniProt O95760 112-270, biotin on the AviTag portion (BirA))
# T1 construct: made in E. coli; also called biotinylated human IL-33 protein
# T1 sequence: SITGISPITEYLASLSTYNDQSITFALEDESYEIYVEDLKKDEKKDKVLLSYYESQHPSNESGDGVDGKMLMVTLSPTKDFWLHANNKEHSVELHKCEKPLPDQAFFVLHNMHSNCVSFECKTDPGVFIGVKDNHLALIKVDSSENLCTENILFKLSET
# assay_summary: SPR, IL-33 on chip, Fab supernatant as analyte
Readings of Human IL-33 Binding Amount (RU) for the listed binders
Your answer should be a plain number; it is taken to be in RU.

binder="A28-2G07 (Fab) (Fab, V domains shown, Fab secreted by E. coli, tested as culture supernatant; also called V27) VH: EVQLLESGGGLVQPGGSLRLSCAASGFTFSSYYMHWVRQAPGKGLEWVSSISARSSYIYYADSVKGRFTISRDNSKNTLYLQMNSLRAEDTAVYYCARLATRRIAFDIWGQGTLVTVSS VL: QSVLTQPPSASGTPGQRVTISCSGSSSNIGRNAVNWYQQLPGTAPKLLIYASNMRRPGVPDRFSGSKSGTSASLAISGLRSEDEADYYCSAWDDSQKAGVFGGGTKLTVL" parameter="Human IL-33 Binding Amount (RU)" measured_number=289

Qu. Write down Human IL-33 Binding Amount (RU) measured for item A13-1F07 (Fab) (Fab, V domains shown, Fab secreted by E. coli, tested as culture supernatant; also called V6) VH: EVQLLESGGGLVQPGGSLRLSCAASGFTFSVYYMNWVRQAPGKGLEWVSSISRYSGYVYYADSVKGRFTISRDNSKNTLYLQMNSLRAEDTAVYYCARDIGGMDVWGQGTLVTVSS VL: QSVLTQPPSASGTPGQRVTISCTGSSSNIGAVYNVHWYQQLPGTAPKLLIYRNNQRPSGVPDRFSGSKSGTSASLAISGLRSEDEADYYCQSYDSRRWVFGGGTKLTVL
Ans. 112

Qu. Write down Human IL-33 Binding Amount (RU) measured for item A28-2H06 (Fab) (Fab, V domains shown, Fab secreted by E. coli, tested as culture supernatant; also called V28) VH: EVQLLESGGGLVQPGGSLRLSCAASGFTFSNYYMHWVRQAPGKGLEWVSSISALSSYRYYADSVKGRFTISRDNSKNTLYLQMNSLRAEDTAVYYCARLATRRVAFDIWGQGTLVTVSS VL: QSVLTQPPSASGTPGQRVTISCSGSSSNIGNNAVNWYQQLPGTAPKLLIYASNMRRLGVPDRFSGSKSGTSASLAISGLRSEDEADYYCAAWDDSQKALVFGGGTKLTVL
Ans. 349
